Biological target: T1, recombinant human c-Met extracellular domain (R&D systems) (human, UniProt P08581 25-932)
T1 construct: extracellular domain; Bought reagent; also called coated extracellular domain of c-Met; recombinant c-Met
Assay: competition ELISA, residual Europium-HGF signal at 615 nm at the lower plateau of the fit; sheet prints no competing mAb ~66000, no HGF-Europium ~600; upper panel
Procedure: ELISA wells were coated overnight at 4° C. with 0.5 μg/mL recombinant human c-Met extracellular domain (R&D systems, Minneapolis, USA) diluted in PBS. […] Mean fluorescence intensity at 615 nm was measured using the EnVision 2101 Multilabel reader (PerkinElmer) applying the following settings: Lance/Delfia dual mirror, emission filter 615, excitation filter 340 nm, delay time 400 μs, window 400 μs, 100 flashes, 2000 μs per cycle and bidirectional row-by-row reading. […]
Param label: returns Satisfied when Bottom < 20000 RFU, returns Not satisfied otherwise, including exact equality.

Here's what some known entries look like.
| binder | discrete-label |
| --- | --- |
| anti-c-Met HuMab 008 (IgG1) (antibody, V domains shown, also called TH1016-008; PC1016-008) VH: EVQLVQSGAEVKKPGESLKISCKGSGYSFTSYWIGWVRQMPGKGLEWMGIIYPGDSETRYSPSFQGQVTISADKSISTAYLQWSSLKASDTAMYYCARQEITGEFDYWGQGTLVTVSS VL: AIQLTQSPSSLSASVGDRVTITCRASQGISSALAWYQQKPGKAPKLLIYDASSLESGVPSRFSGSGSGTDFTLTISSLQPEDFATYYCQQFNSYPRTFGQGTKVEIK | Not satisfied |
| IgG1-1016-058 (antibody, V domains shown, also called IgG1-058; TH1016-058) VH: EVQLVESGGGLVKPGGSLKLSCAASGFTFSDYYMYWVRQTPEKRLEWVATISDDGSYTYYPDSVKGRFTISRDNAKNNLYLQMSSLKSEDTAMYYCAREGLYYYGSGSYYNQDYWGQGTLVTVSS VL: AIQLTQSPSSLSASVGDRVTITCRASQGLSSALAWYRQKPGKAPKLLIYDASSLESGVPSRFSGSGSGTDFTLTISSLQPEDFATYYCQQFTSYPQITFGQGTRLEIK | Satisfied |
| IgG1-1016-022 (antibody, V domains shown, also called TH1016-022; PC1016-022) VH: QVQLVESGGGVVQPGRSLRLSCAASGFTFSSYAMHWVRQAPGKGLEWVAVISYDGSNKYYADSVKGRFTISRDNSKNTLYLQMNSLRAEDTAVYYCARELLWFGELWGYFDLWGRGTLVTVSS VL: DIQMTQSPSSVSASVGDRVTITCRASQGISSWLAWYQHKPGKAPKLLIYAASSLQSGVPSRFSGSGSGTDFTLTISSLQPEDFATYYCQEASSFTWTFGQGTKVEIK | Satisfied |
| IgG1-024 (antibody, V domains shown, also called TH1016-024; PC1016-024) VH: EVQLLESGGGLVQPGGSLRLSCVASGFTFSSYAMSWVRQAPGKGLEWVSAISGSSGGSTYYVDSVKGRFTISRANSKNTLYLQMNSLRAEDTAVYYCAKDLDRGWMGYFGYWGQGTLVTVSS VL: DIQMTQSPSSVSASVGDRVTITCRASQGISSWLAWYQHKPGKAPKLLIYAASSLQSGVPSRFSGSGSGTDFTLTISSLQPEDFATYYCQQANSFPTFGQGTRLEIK | Satisfied |

Turning now to a further binder:
Input: Would you kindly verify if Bottom of anti-c-Met HuMab 045 (IgG1) (antibody, V domains shown, also called TH1016-045; PC1016-045) VH: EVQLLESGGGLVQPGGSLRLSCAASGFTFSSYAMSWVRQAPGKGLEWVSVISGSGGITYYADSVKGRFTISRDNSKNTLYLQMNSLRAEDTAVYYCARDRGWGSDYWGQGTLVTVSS VL: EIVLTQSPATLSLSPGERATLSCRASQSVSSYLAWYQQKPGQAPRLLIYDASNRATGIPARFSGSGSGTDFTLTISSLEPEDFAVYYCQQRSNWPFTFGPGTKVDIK is strictly less than 20000 RFU?
Output: Satisfied
